# target_under_test: DCLK3 (human) (UniProt Q9C098)
# assay_name: KINOMEscan competition binding
# condition_details: compound 10.0 µM
Known kinase still bound, per cent of control of a selection of molecules
Please give a number only; it is taken to be in %.

Examples from the recorded data:
CC(C)n1nc(-c2cc3cc(O)ccc3[nH]2)c2c(N)ncnc21
10
COC(=O)Nc1ccc(-c2nc(N3CCOCC3)c3cnn(C4CCN(C(=O)OC)CC4)c3n2)cc1
92
CCC(=O)N1CCN(c2ccc(-n3c(=O)ccc4cnc5ccc(-c6cnc7ccccc7c6)cc5c43)cc2C(F)(F)F)CC1
97

Shifting focus to the molecule that follows.
// query Would you kindly share the measured kinase still bound, per cent of control for COc1ccc(-c2ccc3c(N4CCOCC4)nc(N4C[C@@H](C)O[C@@H](C)C4)nc3n2)cc1CO ?
// result 100

---

# target_under_test: MYLK4 (human) (UniProt Q86YV6)
# assay_name: KINOMEscan competition binding
# condition_details: compound 10.0 µM
measure_name: kinase still bound, per cent of control
In your response, put the unit directly after the numeric value.

COc1ccc(-c2ccc3c(N4CCOCC4)nc(N4C[C@@H](C)O[C@@H](C)C4)nc3n2)cc1CO
92%
CCC(=O)N1CCN(c2ccc(-n3c(=O)ccc4cnc5ccc(-c6cnc7ccccc7c6)cc5c43)cc2C(F)(F)F)CC1
83%
CC(C)n1nc(-c2cc3cc(O)ccc3[nH]2)c2c(N)ncnc21
43%

Shifting focus to the compound that follows.
// query Would you kindly share the measured kinase still bound, per cent of control for COC(=O)Nc1ccc(-c2nc(N3CCOCC3)c3cnn(C4CCN(C(=O)OC)CC4)c3n2)cc1 ?
// result 99%

---

Known kinase still bound, per cent of control of a selection of molecules
# target_under_test: AXL (human) (UniProt P30530)
# Sequence (P30530 whole entry, looked up): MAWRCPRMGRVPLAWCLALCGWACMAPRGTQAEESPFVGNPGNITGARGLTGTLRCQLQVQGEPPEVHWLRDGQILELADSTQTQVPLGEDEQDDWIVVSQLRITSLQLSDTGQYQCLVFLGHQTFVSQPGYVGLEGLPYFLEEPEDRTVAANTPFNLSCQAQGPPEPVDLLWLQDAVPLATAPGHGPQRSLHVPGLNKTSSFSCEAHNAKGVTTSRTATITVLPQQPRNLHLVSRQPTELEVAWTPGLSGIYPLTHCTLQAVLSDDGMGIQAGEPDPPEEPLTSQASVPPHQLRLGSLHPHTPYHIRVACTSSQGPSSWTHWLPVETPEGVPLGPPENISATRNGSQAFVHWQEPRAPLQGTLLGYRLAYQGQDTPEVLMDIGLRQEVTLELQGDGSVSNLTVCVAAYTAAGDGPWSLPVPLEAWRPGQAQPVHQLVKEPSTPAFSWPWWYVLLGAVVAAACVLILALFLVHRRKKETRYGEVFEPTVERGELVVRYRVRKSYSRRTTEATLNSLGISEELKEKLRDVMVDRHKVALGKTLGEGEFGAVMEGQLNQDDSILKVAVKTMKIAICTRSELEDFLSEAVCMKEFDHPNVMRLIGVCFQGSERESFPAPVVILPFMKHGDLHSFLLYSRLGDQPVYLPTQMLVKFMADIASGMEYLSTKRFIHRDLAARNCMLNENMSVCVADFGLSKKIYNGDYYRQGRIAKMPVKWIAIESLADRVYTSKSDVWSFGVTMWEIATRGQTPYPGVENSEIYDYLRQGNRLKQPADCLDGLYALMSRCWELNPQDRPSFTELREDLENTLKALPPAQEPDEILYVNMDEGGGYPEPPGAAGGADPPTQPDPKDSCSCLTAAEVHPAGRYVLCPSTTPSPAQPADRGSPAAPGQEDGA
# assay_name: KINOMEscan competition binding
# condition_details: compound 10.0 µM
Please give a number only; it is taken to be in %.

CCC(=O)N1CCN(c2ccc(-n3c(=O)ccc4cnc5ccc(-c6cnc7ccccc7c6)cc5c43)cc2C(F)(F)F)CC1
46

// query Would you kindly share the measured kinase still bound, per cent of control for CC(C)n1nc(-c2cc3cc(O)ccc3[nH]2)c2c(N)ncnc21 ?
// result 21

// query And COC(=O)Nc1ccc(-c2nc(N3CCOCC3)c3cnn(C4CCN(C(=O)OC)CC4)c3n2)cc1 ?
// result 100

// query And COc1ccc(-c2ccc3c(N4CCOCC4)nc(N4C[C@@H](C)O[C@@H](C)C4)nc3n2)cc1CO ?
// result 100

---

# target_under_test: PAK4 (human) (UniProt O96013)
# Sequence (O96013 whole entry, looked up): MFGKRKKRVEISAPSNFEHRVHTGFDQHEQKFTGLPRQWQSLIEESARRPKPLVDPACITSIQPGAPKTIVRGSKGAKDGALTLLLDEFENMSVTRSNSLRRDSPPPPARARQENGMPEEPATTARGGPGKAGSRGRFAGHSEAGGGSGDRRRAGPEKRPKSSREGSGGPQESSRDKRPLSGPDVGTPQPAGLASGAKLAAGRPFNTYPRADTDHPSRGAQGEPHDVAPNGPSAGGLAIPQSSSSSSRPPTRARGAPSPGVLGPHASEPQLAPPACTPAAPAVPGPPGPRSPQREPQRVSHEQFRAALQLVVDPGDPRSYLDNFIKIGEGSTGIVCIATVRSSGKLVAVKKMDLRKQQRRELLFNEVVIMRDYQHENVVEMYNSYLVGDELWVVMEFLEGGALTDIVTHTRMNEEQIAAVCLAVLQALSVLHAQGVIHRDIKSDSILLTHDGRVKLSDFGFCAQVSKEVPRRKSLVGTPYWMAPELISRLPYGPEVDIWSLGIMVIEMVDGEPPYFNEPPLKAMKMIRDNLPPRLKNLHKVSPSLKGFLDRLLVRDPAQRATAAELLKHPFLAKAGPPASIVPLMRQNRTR
# assay_name: KINOMEscan competition binding
# condition_details: compound 10.0 µM
measure_name: kinase still bound, per cent of control (%)
Please give a number only; it is taken to be in %.

Examples from the recorded data:
COc1ccc(-c2ccc3c(N4CCOCC4)nc(N4C[C@@H](C)O[C@@H](C)C4)nc3n2)cc1CO
86
CC(C)n1nc(-c2cc3cc(O)ccc3[nH]2)c2c(N)ncnc21
13

// query Would you kindly share the measured kinase still bound, per cent of control for COC(=O)Nc1ccc(-c2nc(N3CCOCC3)c3cnn(C4CCN(C(=O)OC)CC4)c3n2)cc1 ?
// result 100

// query And CCC(=O)N1CCN(c2ccc(-n3c(=O)ccc4cnc5ccc(-c6cnc7ccccc7c6)cc5c43)cc2C(F)(F)F)CC1 ?
// result 100

---

# target_under_test: MAPK1 (human) (UniProt P28482)
# Sequence (P28482 whole entry, looked up): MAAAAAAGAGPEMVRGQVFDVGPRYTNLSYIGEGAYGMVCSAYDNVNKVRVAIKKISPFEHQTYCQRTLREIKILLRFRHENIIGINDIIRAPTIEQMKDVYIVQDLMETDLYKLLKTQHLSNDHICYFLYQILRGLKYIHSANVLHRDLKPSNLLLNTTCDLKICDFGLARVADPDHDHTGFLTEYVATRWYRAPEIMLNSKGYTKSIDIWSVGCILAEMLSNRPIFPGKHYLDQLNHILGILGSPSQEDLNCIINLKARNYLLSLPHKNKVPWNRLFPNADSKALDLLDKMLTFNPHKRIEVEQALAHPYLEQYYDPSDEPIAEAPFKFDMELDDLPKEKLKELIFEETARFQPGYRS
# condition_details: compound 1.0 µM
Known per cent of control of a selection of compounds
Please give a number only; it is taken to be in %.

// query Which measured per cent of control belongs to CCC(=O)N1CCN(c2ccc(-n3c(=O)ccc4cnc5ccc(-c6cnc7ccccc7c6)cc5c43)cc2C(F)(F)F)CC1 , tested on MAPK1 (human) (UniProt P28482)?
// result 102

// query And COC(=O)Nc1ccc(-c2nc(N3CCOCC3)c3cnn(C4CCN(C(=O)OC)CC4)c3n2)cc1 ?
// result 109

// query And COc1ccc(-c2ccc3c(N4CCOCC4)nc(N4C[C@@H](C)O[C@@H](C)C4)nc3n2)cc1CO ?
// result 102

// query And CC(C)n1nc(-c2cc3cc(O)ccc3[nH]2)c2c(N)ncnc21 ?
// result 106

---

# target_under_test: PLK1 (human) (UniProt P53350)
# assay_name: KINOMEscan competition binding
# condition_details: compound 10.0 µM
Known kinase still bound, per cent of control of a selection of compounds
Please give a number only; it is taken to be in %.

CC(C)n1nc(-c2cc3cc(O)ccc3[nH]2)c2c(N)ncnc21
87
CCC(=O)N1CCN(c2ccc(-n3c(=O)ccc4cnc5ccc(-c6cnc7ccccc7c6)cc5c43)cc2C(F)(F)F)CC1
85
COC(=O)Nc1ccc(-c2nc(N3CCOCC3)c3cnn(C4CCN(C(=O)OC)CC4)c3n2)cc1
90

// query Would you kindly share the measured kinase still bound, per cent of control for COc1ccc(-c2ccc3c(N4CCOCC4)nc(N4C[C@@H](C)O[C@@H](C)C4)nc3n2)cc1CO ?
// result 55

---

# System: RET (human), P07949 [V804L]
# Sequence (P07949 whole entry V804L, looked up): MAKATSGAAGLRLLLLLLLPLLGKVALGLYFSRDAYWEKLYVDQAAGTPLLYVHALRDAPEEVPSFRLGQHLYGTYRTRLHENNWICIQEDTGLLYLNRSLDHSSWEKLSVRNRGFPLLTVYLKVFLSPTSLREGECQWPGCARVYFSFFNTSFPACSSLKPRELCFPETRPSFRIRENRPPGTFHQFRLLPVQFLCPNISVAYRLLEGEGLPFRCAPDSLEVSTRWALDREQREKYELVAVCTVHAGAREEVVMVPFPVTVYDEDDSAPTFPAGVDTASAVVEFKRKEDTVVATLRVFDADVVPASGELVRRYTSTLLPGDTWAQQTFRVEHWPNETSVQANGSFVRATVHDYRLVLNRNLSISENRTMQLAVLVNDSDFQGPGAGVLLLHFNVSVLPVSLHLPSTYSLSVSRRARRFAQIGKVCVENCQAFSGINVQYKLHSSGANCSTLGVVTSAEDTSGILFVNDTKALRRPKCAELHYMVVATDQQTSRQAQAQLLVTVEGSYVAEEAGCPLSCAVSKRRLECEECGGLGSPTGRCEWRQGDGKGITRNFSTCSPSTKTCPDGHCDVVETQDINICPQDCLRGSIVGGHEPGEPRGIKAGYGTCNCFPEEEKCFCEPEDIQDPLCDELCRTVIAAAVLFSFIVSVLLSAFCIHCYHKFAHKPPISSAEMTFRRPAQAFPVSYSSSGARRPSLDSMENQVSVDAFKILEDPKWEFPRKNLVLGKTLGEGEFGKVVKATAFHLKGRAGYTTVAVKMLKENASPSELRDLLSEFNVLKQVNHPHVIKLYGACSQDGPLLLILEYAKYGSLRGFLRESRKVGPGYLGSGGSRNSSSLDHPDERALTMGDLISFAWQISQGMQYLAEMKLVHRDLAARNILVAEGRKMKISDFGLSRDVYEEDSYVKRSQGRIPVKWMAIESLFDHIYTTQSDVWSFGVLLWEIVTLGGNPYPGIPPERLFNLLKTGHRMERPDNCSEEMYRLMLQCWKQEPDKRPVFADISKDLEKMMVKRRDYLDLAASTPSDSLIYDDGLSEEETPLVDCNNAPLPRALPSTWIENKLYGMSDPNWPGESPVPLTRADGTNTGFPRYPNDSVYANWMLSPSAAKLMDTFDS
# assay_name: KINOMEscan competition binding
# condition_details: compound 10.0 µM
measure_name: kinase still bound, per cent of control (%)
Please give a number only; it is taken to be in %.

Examples from the recorded data:
COC(=O)Nc1ccc(-c2nc(N3CCOCC3)c3cnn(C4CCN(C(=O)OC)CC4)c3n2)cc1
84
CCC(=O)N1CCN(c2ccc(-n3c(=O)ccc4cnc5ccc(-c6cnc7ccccc7c6)cc5c43)cc2C(F)(F)F)CC1
66
COc1ccc(-c2ccc3c(N4CCOCC4)nc(N4C[C@@H](C)O[C@@H](C)C4)nc3n2)cc1CO
100

// query Which measured kinase still bound, per cent of control belongs to CC(C)n1nc(-c2cc3cc(O)ccc3[nH]2)c2c(N)ncnc21 , tested on RET (human), P07949 [V804L]?
// result 12

---

# target_under_test: MAK (human)
# assay_name: KINOMEscan competition binding
# condition_details: compound 10.0 µM
measure_name: kinase still bound, per cent of control (%)
Please give a number only; it is taken to be in %.

Examples from the recorded data:
COc1ccc(-c2ccc3c(N4CCOCC4)nc(N4C[C@@H](C)O[C@@H](C)C4)nc3n2)cc1CO
100
COC(=O)Nc1ccc(-c2nc(N3CCOCC3)c3cnn(C4CCN(C(=O)OC)CC4)c3n2)cc1
100
CCC(=O)N1CCN(c2ccc(-n3c(=O)ccc4cnc5ccc(-c6cnc7ccccc7c6)cc5c43)cc2C(F)(F)F)CC1
68

Shifting focus to the compound that follows.
// query Would you kindly share the measured kinase still bound, per cent of control for CC(C)n1nc(-c2cc3cc(O)ccc3[nH]2)c2c(N)ncnc21 ?
// result 99

---

# target_under_test: GRK1 (human) (UniProt Q15835)
# Sequence (Q15835 whole entry, looked up): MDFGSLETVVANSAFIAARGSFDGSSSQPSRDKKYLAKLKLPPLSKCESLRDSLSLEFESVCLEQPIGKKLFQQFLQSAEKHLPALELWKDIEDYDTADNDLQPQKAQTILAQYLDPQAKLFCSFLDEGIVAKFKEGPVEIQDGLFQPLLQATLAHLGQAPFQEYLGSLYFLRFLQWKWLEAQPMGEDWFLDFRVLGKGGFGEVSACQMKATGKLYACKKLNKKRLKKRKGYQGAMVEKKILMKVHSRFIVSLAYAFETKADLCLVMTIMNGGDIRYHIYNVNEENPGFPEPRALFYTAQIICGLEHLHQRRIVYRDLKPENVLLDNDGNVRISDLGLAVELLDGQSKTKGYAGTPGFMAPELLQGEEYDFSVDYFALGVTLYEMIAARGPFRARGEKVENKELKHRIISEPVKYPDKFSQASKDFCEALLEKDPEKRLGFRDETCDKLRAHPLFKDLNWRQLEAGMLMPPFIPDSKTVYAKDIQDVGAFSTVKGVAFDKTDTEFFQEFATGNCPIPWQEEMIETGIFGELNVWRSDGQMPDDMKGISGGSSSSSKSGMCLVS
# assay_name: KINOMEscan competition binding
# condition_details: compound 10.0 µM
Known kinase still bound, per cent of control of a selection of molecules
Please give a number only; it is taken to be in %.

Examples from the recorded data:
CC(C)n1nc(-c2cc3cc(O)ccc3[nH]2)c2c(N)ncnc21
16
COC(=O)Nc1ccc(-c2nc(N3CCOCC3)c3cnn(C4CCN(C(=O)OC)CC4)c3n2)cc1
100

// query Which measured kinase still bound, per cent of control belongs to CCC(=O)N1CCN(c2ccc(-n3c(=O)ccc4cnc5ccc(-c6cnc7ccccc7c6)cc5c43)cc2C(F)(F)F)CC1 , tested on GRK1 (human) (UniProt Q15835)?
// result 99

// query And COc1ccc(-c2ccc3c(N4CCOCC4)nc(N4C[C@@H](C)O[C@@H](C)C4)nc3n2)cc1CO ?
// result 98

---

# target_under_test: MYO3B (human) (UniProt Q8WXR4)
# assay_name: KINOMEscan competition binding
# condition_details: compound 10.0 µM
measure_name: kinase still bound, per cent of control (%)
Please give a number only; it is taken to be in %.

Examples from the recorded data:
COc1ccc(-c2ccc3c(N4CCOCC4)nc(N4C[C@@H](C)O[C@@H](C)C4)nc3n2)cc1CO
100
CC(C)n1nc(-c2cc3cc(O)ccc3[nH]2)c2c(N)ncnc21
19
COC(=O)Nc1ccc(-c2nc(N3CCOCC3)c3cnn(C4CCN(C(=O)OC)CC4)c3n2)cc1
97

Shifting focus to the molecule that follows.
// query Would you kindly share the measured kinase still bound, per cent of control for CCC(=O)N1CCN(c2ccc(-n3c(=O)ccc4cnc5ccc(-c6cnc7ccccc7c6)cc5c43)cc2C(F)(F)F)CC1 ?
// result 100

---

# target_under_test: ERBB3 (human) (UniProt P21860)
# Sequence (P21860 whole entry, looked up): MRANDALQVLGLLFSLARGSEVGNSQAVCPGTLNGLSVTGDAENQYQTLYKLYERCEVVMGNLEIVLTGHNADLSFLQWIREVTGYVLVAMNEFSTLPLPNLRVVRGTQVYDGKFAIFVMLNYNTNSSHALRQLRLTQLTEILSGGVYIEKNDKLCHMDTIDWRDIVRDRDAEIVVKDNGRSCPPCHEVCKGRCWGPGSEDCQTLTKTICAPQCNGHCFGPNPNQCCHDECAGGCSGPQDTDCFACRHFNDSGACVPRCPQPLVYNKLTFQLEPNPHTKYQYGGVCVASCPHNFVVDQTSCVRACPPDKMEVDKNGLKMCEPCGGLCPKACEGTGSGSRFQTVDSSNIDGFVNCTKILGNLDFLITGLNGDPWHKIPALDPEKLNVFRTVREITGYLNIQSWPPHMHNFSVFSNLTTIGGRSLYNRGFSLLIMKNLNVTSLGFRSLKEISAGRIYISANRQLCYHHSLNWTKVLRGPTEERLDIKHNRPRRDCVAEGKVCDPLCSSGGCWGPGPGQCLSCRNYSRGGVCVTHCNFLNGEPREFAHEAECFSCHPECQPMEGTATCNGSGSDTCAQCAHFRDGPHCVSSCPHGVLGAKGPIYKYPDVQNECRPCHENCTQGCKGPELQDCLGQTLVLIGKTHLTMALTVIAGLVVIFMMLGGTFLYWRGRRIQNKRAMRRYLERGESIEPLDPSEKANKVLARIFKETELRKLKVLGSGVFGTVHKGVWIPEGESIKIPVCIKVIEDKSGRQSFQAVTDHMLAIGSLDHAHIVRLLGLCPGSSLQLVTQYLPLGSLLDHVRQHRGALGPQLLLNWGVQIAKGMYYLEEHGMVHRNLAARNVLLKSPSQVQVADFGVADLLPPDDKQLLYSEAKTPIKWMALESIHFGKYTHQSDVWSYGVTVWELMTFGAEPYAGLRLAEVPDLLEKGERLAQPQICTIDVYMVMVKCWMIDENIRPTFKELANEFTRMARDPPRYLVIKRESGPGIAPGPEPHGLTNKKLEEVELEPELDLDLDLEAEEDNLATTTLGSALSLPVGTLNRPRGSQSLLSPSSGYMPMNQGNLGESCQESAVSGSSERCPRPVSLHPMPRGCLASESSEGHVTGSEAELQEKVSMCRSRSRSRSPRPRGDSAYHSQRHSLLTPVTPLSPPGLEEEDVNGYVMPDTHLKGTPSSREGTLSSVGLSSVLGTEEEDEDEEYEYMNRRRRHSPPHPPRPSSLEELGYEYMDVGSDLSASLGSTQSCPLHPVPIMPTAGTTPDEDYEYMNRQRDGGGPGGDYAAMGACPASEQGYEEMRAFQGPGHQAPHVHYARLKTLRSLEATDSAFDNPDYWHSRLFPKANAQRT
# assay_name: KINOMEscan competition binding
# condition_details: compound 10.0 µM
measure_name: kinase still bound, per cent of control (%)
Please give a number only; it is taken to be in %.

Examples from the recorded data:
CCC(=O)N1CCN(c2ccc(-n3c(=O)ccc4cnc5ccc(-c6cnc7ccccc7c6)cc5c43)cc2C(F)(F)F)CC1
44
COc1ccc(-c2ccc3c(N4CCOCC4)nc(N4C[C@@H](C)O[C@@H](C)C4)nc3n2)cc1CO
85
CC(C)n1nc(-c2cc3cc(O)ccc3[nH]2)c2c(N)ncnc21
0

Shifting focus to the compound that follows.
// query Would you kindly share the measured kinase still bound, per cent of control for COC(=O)Nc1ccc(-c2nc(N3CCOCC3)c3cnn(C4CCN(C(=O)OC)CC4)c3n2)cc1 ?
// result 100
